System: TK-10
Experiment: NCI tumour cell line growth inhibition, 48 h
Activity calls are given as the source filed them. Cut-off read from the data, not from the text of the source: active = GI50 up to about 1.1 µM and inactive = higher. Starred links: 1 amine or outer side, 2 acyl side, 3 side chain; linkers in the order of their positions; H or OH if unused. Non-standard residues stand in square brackets, D forms with d. Residues, ends and D or L forms follow the SMILES beside them. ξ: configuration not given here. Ile(3ξ) = CCC(C)[C@H](N)C(=O)O; X35 = C=CCC(O[*:1])C(=O)[*:2]; NMeV = CN[C@H](C(=O)O)C(C)C; NMeA = CN[C@@H](C)C(=O)O; βAla = NCCC(=O)O
readoutKind: GI50

{"columns": ["molecule", "GI50"],
 "data": [
  ["C=CCC1OC(=O)CCNC(=O)[C@H](C)N(C)C(=O)[C@H](C(C)C)N(C)C(=O)[C@H](C(C)CC)NC(=O)[C@@H]2CCCN2C1=O (stereo not given in full) (cyclo([Ile(3ξ)][NMeV][NMeA][βAla][X35]P))", "> 38.3 µM (inactive)"]
]}

Inquiry: Any idea what GI50 was measured for CN(C)c1nc(Oc2nc(N(C)C)nc(N(C)C)n2)nc(N(C)C)n1 ?
Reply text: > 100 µM (inactive)

Inquiry: Any idea what GI50 was measured for CC1CCCC2=C1C(c1ccc(Cl)cc1)n1c(s/c(=C\c3ccc(Cl)cc3)c1=O)=N2 (stereo not given) ?
Reply text: > 100 µM (inactive)

* * *

Reported GI50 values for a set of molecules
System: RPMI-8226
Assay: NCI tumour cell line growth inhibition, 48 h
The source made the active and inactive calls. Cut-off read from the data, not from the text of the source: active = GI50 up to about 1.1 µM and inactive = higher.

Some solved entries appear below for comparison.
{"columns": ["molecule", "experimentalResult"],
 "data": [
  ["COc1ccc2c(n1)Sc1nc3ccccc3nc1N2", "> 100 µM (inactive)"],
  ["COc1ccc(C2SCC(=O)N2NC(=O)C(C)Oc2ccccc2C)cc1 (configuration not stated)", "41.5 µM (inactive)"],
  ["CN1C2CCC1CN(CCOC(c1ccc(F)cc1)c1ccc(F)cc1)C2", "23.9 µM (inactive)"],
  ["CCCCCCCCCCCc1cc(=O)c2c(O)cccc2o1", "30.6 µM (inactive)"],
  ["N#Cc1nc(-c2cccs2)oc1N", "> 100 µM (inactive)"]
]}

Inquiry: Identify the measured GI50 of N#Cc1c(N2CCN(c3ccc([N+](=O)[O-])cc3)CC2)[n+]([O-])c2ccccc2[n+]1[O-] for RPMI-8226.
Reply text: 6.5 µM (inactive)

Inquiry: Identify the measured GI50 of Cn1cc(-c2n[nH]c(-c3ccc(Cl)cc3)nc2=O)c2ccccc21 for RPMI-8226.
Reply text: 3.23 µM (inactive)

* * *

log10(GI50) tested on HCT-15: recorded values
In plain terms, each number is the log10 of measured GI50 in µM.

Some solved entries appear below for comparison.
{"columns": ["compound", "log10(GI50)"],
 "data": [
  ["O=C(O)CC(NC(=O)CP(=O)(O)O)C(=O)O (configuration not stated)", 2.16],
  ["CCCN(CCC)c1c([N+](=O)[O-])cc(C(=O)N(CC)CC)cc1[N+](=O)[O-]", 1.33],
  ["CCN(CC)c1ccc(/N=C2\\C=C(Cl)C(=O)c3ncccc32)c(C)c1", 0.59],
  ["C=CC1(c2ccc3ccccc3c2)OCC(CC)O1 (configuration not stated)", 1.66],
  ["N#Cc1c2c(c(N=P(c3ccccc3)(c3ccccc3)c3ccccc3)n3c1nc1ccccc13)CCCC2", 1.32]
]}

Next compound, please.
Inquiry: Any idea what log10(GI50) was measured for c1ccc2cc(CNCCOCCOCCNCc3ccc4ccccc4c3)ccc2c1 ?
Reply text: 0.29

* * *

Tested on: SN12C
Assay: NCI tumour cell line growth inhibition, 48 h
Active and inactive are the calls of the source. No stated cut-off is given here; in the data, active = GI50 up to about 1.1 µM and inactive = higher.
readoutKind: GI50

Some solved entries appear below for comparison.
{"columns": ["molecule", "experimentalResult"],
 "data": [
  ["O=C1CCC(c2nc3ccccc3o2)C(=O)N1 (stereo not drawn)", "> 100 µM (inactive)"],
  ["CC(=O)OC1CC2C(C)(C)C(=O)C=C[C@]2(C)C2CCC3(C)C(=CCC3[C@H](CO)C[C@H](O)C(=O)C(C)(C)O)[C@]12C (stereo partly drawn)", "26.4 µM (inactive)"]
]}

Next molecule, please.
Inquiry: Identify the measured GI50 of NC(CCCNCc1ccccc1)C(=O)O (stereo not drawn) for SN12C.
Reply text: > 100 µM (inactive)

* * *

Tested on: NCI/ADR-RES
Experiment: NCI tumour cell line growth inhibition, 48 h
The source made the active and inactive calls. No stated cut-off is given here; in the data, active = GI50 up to about 1.1 µM and inactive = higher.
readoutKind: GI50

Some solved entries appear below for comparison.
{"columns": ["molecule", "system", "experimentalResult"],
 "data": [
  ["CC(=O)Nc1sc(Br)cc1S(=O)(=O)c1ccc(Cl)cc1", "NCI/ADR-RES", "21.9 µM (inactive)"],
  ["C=CC1(c2ccc3ccccc3c2)OCC(CC)O1 (centres undefined)", "NCI/ADR-RES", "> 100 µM (inactive)"],
  ["CC(C)(C)c1cc(OCc2nnc3sc(-c4ccc(Cl)cc4)nn23)c(Cl)cc1OCc1nnc2sc(-c3ccc(Cl)cc3)nn12", "NCI/ADR-RES", "2.01 µM (inactive)"],
  ["O=C(O)CC(NC(=O)C(F)(F)F)C(=O)NC1Cc2ccccc2OC1=O (centres undefined)", "NCI/ADR-RES", "> 100 µM (inactive)"],
  ["Clc1nc(NC23CC4CC(CC(C4)C2)C3)nc(NC23CC4CC(CC(C4)C2)C3)n1", "NCI/ADR-RES", "46 µM (inactive)"],
  ["CCN(CC)Cc1ccc(Nc2c3ccccc3nc3ccccc23)cc1", "NCI/ADR-RES", "5.48 µM (inactive)"],
  ["O=C(O)CCCCn1ccc(=O)[nH]c1=O", "NCI/ADR-RES", "> 100 µM (inactive)"],
  ["Cc1c(C)c(C)c(CSC(=N)N)c(C)c1C", "NCI/ADR-RES", "15.2 µM (inactive)"]
]}

Next molecule, please.
Inquiry: Any idea what GI50 was measured for CN1CCc2[nH]c3ccccc3c2C1 ?
Reply text: > 100 µM (inactive)

* * *

Tested on: HCC 2998
Experiment: NCI tumour cell line growth inhibition, 48 h
Activity calls are given as the source filed them. No stated cut-off is given here; in the data, active = GI50 up to about 1.1 µM and inactive = higher.
readoutKind: GI50

Some solved entries appear below for comparison.
{"columns": ["molecule", "GI50"],
 "data": [
  ["O=c1c2cc(I)ccc2nc(SCc2nncs2)n1Cc1ccccc1", "16.4 µM (inactive)"],
  ["COc1cc(/C=C/C(=O)c2sc(NNC(C)=O)nc2C)ccc1O", "> 100 µM (inactive)"],
  ["COc1ccc(C(O)/C(=N\\NC(N)=S)c2nc3ccc([N+](=O)[O-])cc3nc2O)cc1OC (configuration not stated)", "> 100 µM (inactive)"],
  ["CC(C)S(=O)(=O)n1c(N)nc2ccc(/C(=N/O)c3ccccc3)cc21", "22 µM (inactive)"],
  ["N#Cc1nc(-c2cccs2)oc1N", "> 100 µM (inactive)"],
  ["CS(=O)(=O)Nc1ccc2c(c1)oc(=O)c1ccccc12", "> 100 µM (inactive)"],
  ["COc1cc2c(cc1O)C1CC(CC3CCCCN31)OC(=O)/C=C\\c1ccc(O)c-2c1 (configuration not stated)", "18.2 µM (inactive)"],
  ["O=C(CCl)Nc1ccc(-c2nc3ccccc3s2)cc1", "2.51 µM (inactive)"],
  ["COc1cc2c(cc1OC)[C@@H]1[C@H](C#N)C(=O)C(C)(C)N1CC2", "> 100 µM (inactive)"],
  ["Cc1cccc(C(C)O)n1 (configuration not stated)", "> 100 µM (inactive)"]
]}

Inquiry: Any idea what GI50 was measured for n1onc2c1NC1Nc3nonc3NC1N2 (configuration not stated) ?
Reply text: > 100 µM (inactive)

Inquiry: Any idea what GI50 was measured for CCOC(=O)C(Cc1ccccc1)NC(=O)c1nc[nH]c1/N=N/N(C)C (configuration not stated) ?
Reply text: > 100 µM (inactive)

Inquiry: Any idea what GI50 was measured for CCc1ccc(Cc2ccc(CC)c(NC(=O)C(=O)Cc3nc4ccccc4nc3C)c2CC)c(CC)c1NC(=O)C(=O)Cc1nc2ccccc2nc1C ?
Reply text: 62.5 µM (inactive)

Inquiry: Any idea what GI50 was measured for Cc1ccccc1C(CCCO)C(=O)O (configuration not stated) ?
Reply text: > 10 µM (inactive)

Inquiry: Any idea what GI50 was measured for N#Cc1nc(-c2cccc(-c3nc(C#N)c(N)o3)n2)oc1N ?
Reply text: > 100 µM (inactive)

Inquiry: Any idea what GI50 was measured for CN(C)c1ccc(/C=C2\N=C(c3ccccc3)N(/N=C3\C(=O)Nc4ccccc43)C2=O)cc1 ?
Reply text: 52.4 µM (inactive)

Inquiry: Any idea what GI50 was measured for Cn1c(-c2ccccc2)cc(-c2ccsc2)c1-c1ccsc1 ?
Reply text: > 100 µM (inactive)

The measurements presented in this section are drawn from ChEMBL document CHEMBL1201862.
